- procedure summary: Mean residence time in healthy human at 10 mg/kg, iv once daily for 3 days measured at 24 after start of infusion
- Type: ADME, organism-based
- Parameters: dose 10 mg/kg, route intravenous
- measurement context: in vivo
assay readout: MRT (h)
Answers are plain numbers, in h.

Request the reported MRT associated with CCCCCCCCCCNCCN[C@@]1(C)C[C@H](O[C@H]2[C@H](Oc3c4cc5cc3Oc3ccc(cc3Cl)[C@@H](O)[C@@H](NC(=O)[C@@H](CC(C)C)NC)C(=O)N[C@@H](CC(N)=O)C(=O)N[C@H]5C(=O)N[C@H]3C(=O)N[C@H](C(=O)N[C@H](C(=O)O)c5cc(O)c(CNCP(=O)(O)O)c(O)c5-c5cc3ccc5O)[C@H](O)c3ccc(c(Cl)c3)O4)O[C@H](CO)[C@@H](O)[C@@H]2O)O[C@@H](C)[C@H]1O [TELAVANCIN]
9.42

* * *

- procedure summary: Terminal half life in healthy human at 10 mg/kg, iv once daily for 3 days measured at 24 after start of infusion
- Assay type: ADME, organism-based
- Design: dose 10 mg/kg, route intravenous
- measurement context: in vivo, read-out: beta t1/2 (converted)
assay readout: half-life (h)
Answers are plain numbers, in h.

Request the reported half-life associated with CCCCCCCCCCNCCN[C@@]1(C)C[C@H](O[C@H]2[C@H](Oc3c4cc5cc3Oc3ccc(cc3Cl)[C@@H](O)[C@@H](NC(=O)[C@@H](CC(C)C)NC)C(=O)N[C@@H](CC(N)=O)C(=O)N[C@H]5C(=O)N[C@H]3C(=O)N[C@H](C(=O)N[C@H](C(=O)O)c5cc(O)c(CNCP(=O)(O)O)c(O)c5-c5cc3ccc5O)[C@H](O)c3ccc(c(Cl)c3)O4)O[C@H](CO)[C@@H](O)[C@@H]2O)O[C@@H](C)[C@H]1O
7.41

* * *

- procedure summary: Drug level in alveolar macrophage of healthy human undergoing fiber-optic bronchoscopy at 10 mg/kg, iv once daily for 3 days measured at 8 hrs after start of infusion by validated liquid chromatography
- Type: ADME, organism-based
- Parameters: dose 10 mg/kg, route intravenous
- measurement context: alveolar macrophages, read-out: Drug uptake
assay readout: concentration at 8 h (µg/mL)
Numbers only, in µg/mL.

Request the reported concentration at 8 h associated with CCCCCCCCCCNCCN[C@@]1(C)C[C@H](O[C@H]2[C@H](Oc3c4cc5cc3Oc3ccc(cc3Cl)[C@@H](O)[C@@H](NC(=O)[C@@H](CC(C)C)NC)C(=O)N[C@@H](CC(N)=O)C(=O)N[C@H]5C(=O)N[C@H]3C(=O)N[C@H](C(=O)N[C@H](C(=O)O)c5cc(O)c(CNCP(=O)(O)O)c(O)c5-c5cc3ccc5O)[C@H](O)c3ccc(c(Cl)c3)O4)O[C@H](CO)[C@@H](O)[C@@H]2O)O[C@@H](C)[C@H]1O [TELAVANCIN]
19

* * *

- procedure summary: Clearance at steady state in healthy human at 10 mg/kg, iv once daily for 3 days measured at 24 after start of infusion
- Format: ADME, organism-based
- Parameters: dose 10 mg/kg, route intravenous
- measurement context: in vivo, read-out: CLss (converted)
assay readout: clearance (mL/min/kg)
Answers are plain numbers, in mL/min/kg.

Request the reported clearance associated with CCCCCCCCCCNCCN[C@@]1(C)C[C@H](O[C@H]2[C@H](Oc3c4cc5cc3Oc3ccc(cc3Cl)[C@@H](O)[C@@H](NC(=O)[C@@H](CC(C)C)NC)C(=O)N[C@@H](CC(N)=O)C(=O)N[C@H]5C(=O)N[C@H]3C(=O)N[C@H](C(=O)N[C@H](C(=O)O)c5cc(O)c(CNCP(=O)(O)O)c(O)c5-c5cc3ccc5O)[C@H](O)c3ccc(c(Cl)c3)O4)O[C@H](CO)[C@@H](O)[C@@H]2O)O[C@@H](C)[C@H]1O [TELAVANCIN]
0.217

// data source = ChEMBL document CHEMBL1153549
